# Target system: Multidrug efflux pump subunit AcrB (Escherichia coli (strain K12)) (UniProt P31224)
# Sequence (P31224 whole entry): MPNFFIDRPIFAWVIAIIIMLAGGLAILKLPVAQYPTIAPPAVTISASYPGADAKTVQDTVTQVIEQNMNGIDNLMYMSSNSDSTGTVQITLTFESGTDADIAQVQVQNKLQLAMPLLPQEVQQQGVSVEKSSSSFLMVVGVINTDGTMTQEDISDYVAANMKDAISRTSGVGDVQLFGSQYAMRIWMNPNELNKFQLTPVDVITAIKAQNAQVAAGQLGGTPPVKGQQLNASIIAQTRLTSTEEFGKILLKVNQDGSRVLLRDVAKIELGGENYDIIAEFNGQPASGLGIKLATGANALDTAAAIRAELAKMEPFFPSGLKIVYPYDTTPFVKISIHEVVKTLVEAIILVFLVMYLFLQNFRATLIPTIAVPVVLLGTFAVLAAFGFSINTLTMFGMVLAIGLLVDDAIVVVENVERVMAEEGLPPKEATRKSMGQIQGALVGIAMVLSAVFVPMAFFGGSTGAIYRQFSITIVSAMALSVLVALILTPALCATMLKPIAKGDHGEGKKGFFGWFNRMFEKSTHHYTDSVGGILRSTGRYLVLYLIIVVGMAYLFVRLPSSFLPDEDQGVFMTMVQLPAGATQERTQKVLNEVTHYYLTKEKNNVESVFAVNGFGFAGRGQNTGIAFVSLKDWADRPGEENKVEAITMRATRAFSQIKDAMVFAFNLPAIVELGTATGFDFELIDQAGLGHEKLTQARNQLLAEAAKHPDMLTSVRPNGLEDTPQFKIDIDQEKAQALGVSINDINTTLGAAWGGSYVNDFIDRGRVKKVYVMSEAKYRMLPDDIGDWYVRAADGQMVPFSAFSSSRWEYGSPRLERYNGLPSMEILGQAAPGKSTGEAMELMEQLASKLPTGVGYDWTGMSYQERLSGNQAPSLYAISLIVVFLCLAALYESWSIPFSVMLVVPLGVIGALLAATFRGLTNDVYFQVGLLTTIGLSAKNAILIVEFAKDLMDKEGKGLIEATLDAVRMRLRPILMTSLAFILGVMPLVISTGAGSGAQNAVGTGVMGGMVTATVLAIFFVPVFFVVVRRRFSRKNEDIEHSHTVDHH
# Procedure summary: Inhibition of AcrB in wild-type drug-resistant Escherichia coli […] assessed as potentiation of levofloxacin-induced antimicrobial activity by measuring levofloxacin MIC at 64 ug/ml by checkerboard titration method (reference value: 0.063 ug/ml)
Property label: MIC
Don't forget the unit after the value.

Observe how each entry below is paired with its result.
CCCCCN1C(=O)c2cc3cccc(OC)c3cc2C1=O: 0.0313 µg/mL
COc1ccc(CN2C(=O)c3cc4cccc(OC)c4cc3C2=O)cc1: 0.063 µg/mL
COc1cccc2cc3c(cc12)C(=O)N(Cc1ccccc1)C3=O: 0.063 µg/mL

## Task For CCc1ccccc1N1C(=O)c2cc3cccc(OC)c3cc2C1=O , what is its reported MIC?
## Result 0.0313 µg/mL
